measurement.target: human APJ receptor (Homo sapiens)
Construct: expressed in transfected cells; host or cells: HEK293
Sequence (P35414 whole entry): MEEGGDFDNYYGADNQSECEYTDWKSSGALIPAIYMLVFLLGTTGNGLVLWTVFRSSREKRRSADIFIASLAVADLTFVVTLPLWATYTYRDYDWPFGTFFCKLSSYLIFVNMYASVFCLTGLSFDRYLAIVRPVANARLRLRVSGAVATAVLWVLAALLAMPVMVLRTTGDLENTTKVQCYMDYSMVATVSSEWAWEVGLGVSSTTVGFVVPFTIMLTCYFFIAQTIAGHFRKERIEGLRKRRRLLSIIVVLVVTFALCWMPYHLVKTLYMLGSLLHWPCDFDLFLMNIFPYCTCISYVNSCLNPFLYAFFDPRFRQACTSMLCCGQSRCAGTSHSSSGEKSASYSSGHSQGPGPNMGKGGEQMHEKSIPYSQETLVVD
test: Intracellular cAMP Accumulation Assay (APJ hcAMP, HTRF)
Format: cell-based
run.parameters: human APJ, intracellular cAMP accumulation; read-out: hAPJ cAMP EC50 Potency range
Form field: EC50 (one value per entry).

As a guide, the following entries are already answered.
{"compound": "CCCCc1nc(=O)c(C(=O)N2CC[C@@H](c3ccccc3)C2)c(O)n1C(C)c1ccccc1 (stereo partly shown)", "readout.name": "EC50", "assay.value": "10 to 100 nM"}
{"compound": "CCCCc1nc(=O)c(C(=O)N2CC[C@@H](c3ccccc3)C2)c(O)n1[C@@H](C)c1ccccc1OC", "readout.name": "EC50", "assay.value": "10 to 100 nM"}
{"compound": "CC[C@@H](c1cc(F)cc(F)c1)n1c(-c2cnn(C)c2)nc(=O)c(C(=O)N2CCC(c3ncc(F)cc3F)C2)c1O (single isomer, unassigned) [Example 182]", "readout.name": "EC50", "assay.value": "0.01 to 10 nM"}

Shift focus to the following entry.
What value of EC50 on human APJ receptor (Homo sapiens) does "CCCCc1nc(=O)c(C(=O)N2CC[C@@H](c3ccccc3)C2)c(O)n1[C@H](C)c1ccccc1OC" have? 10 to 100 nM
